biological target: FRMPD2_1, Q68DX3; assay: holdup assay; design: key: below the threshold = too weak to quantify, mostly under pKd 3.1 to 4; conditions: plain residues with an end cap or a label only (N-terminal biotin on a linker: ttds)
Sequence (Q68DX3 770-861): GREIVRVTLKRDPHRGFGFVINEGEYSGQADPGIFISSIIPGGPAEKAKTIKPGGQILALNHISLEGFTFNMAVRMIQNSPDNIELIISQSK

Binder: GQDSREETQL [KCNT2, Q6UVM3]
pKd: below the threshold

Binder: TVASEKESVM [SLC1A5, Q15758]
pKd: below the threshold

Binder: QSARYRDTEL [TJP2, Q9UDY2]
pKd: below the threshold
